system: OXPHOS gene expression; type: cell-based, mouse; details: normalized composite Z-score vs mock-treated (DMSO) wells; Conc 20 μM
# Lookup of reported GE-HTS keyed by entry
Respond with the number and no other words.

Reference set (5 entries):
1. COc1ccc2c(c1)OCC(Cc1ccc(OC)c(OC)c1)C2O (centres unmarked) [3-deshydroxysappanol trimethyl ether, reference compound]    0.465
2. COc1ccc(-c2coc3c(OC)c(O)ccc3c2=O)cc1 [7-hydroxy-8,4′-dimethoxyisoflavone]    −0.962
3. C[C@@H]1CC[C@@]2(OC1)O[C@H]1C[C@H]3[C@@H]4CC[C@H]5C[C@@H](O)CC[C@]5(C)C4=CC[C@]3(C)[C@H]1[C@@H]2C [hydroxy (3beta)isoallospirost-9 (11)-ene]    −0.457
4. CC1OC(OC2C(O)COC(OC3C(C)OC(OC4C(OC(=O)C56CCC(C)(C)CC5C5=CCC7C8(C)CCC(OC9OC(CO)C(O)C(O)C9O)C(C)(C)C8CCC7(C)C5(C)CC6O)OCC(O)C4O)C(O)C3O)C2O)C(O)C(O)C1O (centres unmarked) [chrysanthellin A]    −0.126
5. COc1cccc(C=CC(=O)O)c1C(C)C [2-isopropyl-3-methoxycinnamic acid]    0.153

Incoming: Record request: GE-HTS value, item CC(=O)O[C@H]1C[C@@H](OC(C)=O)C(C)(C)C2CC(=O)[C@]3(C)C(CC[C@@]4(C)[C@H](C(=O)O)OC(=O)C5OC543)[C@]21C (some centres unmarked) [deacetoxy(7)-7-oxokhivorinic acid]
Outgoing: −0.919

Incoming: Record request: GE-HTS value, item C=C/C(C)=C\CC1C(C)(O)CCC2C(C)(C)CCCC21C (centres unmarked) [abienol]
Outgoing: 0.498

Incoming: Record request: GE-HTS value, item COc1cccc2c1CCC1CC(=O)CCC21C (centres unmarked)
Outgoing: −0.872

Incoming: Record request: GE-HTS value, item C=C1CC[C@H]2O[C@]2(C)CC[C@@H]2[C@@H]1CC2(C)C [carylophyllene oxide]
Outgoing: −0.087

* * *

test system: OXPHOS gene expression; assay type: cell-based, mouse; settings: composite Z-score vs DMSO wells; Conc 20 μM
MEASURED METRIC: GE-HTS
Respond with the number and no other words.

1. C[C@]12CC[C@H]3[C@@H](CC[C@]4(O)C[C@@H](O)CC[C@]34C=O)[C@@]1(O)CC[C@@H]2C1=CC(=O)OC1    −0.232
2. CC(C)(Sc1cc(C(C)(C)C)c(O)c(C(C)(C)C)c1)Sc1cc(C(C)(C)C)c(O)c(C(C)(C)C)c1    −0.053
3. CCOC(=O)CCCCCCCCCCCCC1C=CCC1 (centres unmarked)    −0.730

Incoming: Record request: GE-HTS value, item CC(C)NCC(O)c1cc(O)cc(O)c1 (centres unmarked)
Outgoing: 0.086

Incoming: Record request: GE-HTS value, item C[N+](C)(C)CCCCCC[N+](C)(C)C [hexamethonium bromide]
Outgoing: −0.735

Incoming: Record request: GE-HTS value, item N[C@@H](Cc1ccc(N(CCCl)CCCl)cc1)C(=O)O
Outgoing: 1.449

Incoming: Record request: GE-HTS value, item Cc1onc(-c2c(Cl)cccc2Cl)c1C(=O)N[C@@H]1C(=O)N2[C@@H]1SC(C)(C)[C@@H]2C(=O)O [dicloxacillin sodium]
Outgoing: 0.661

Incoming: Record request: GE-HTS value, item O=C1C(O)=C(O)C(=O)C(O)=C1O
Outgoing: 0.067

* * *

system: nuOXPHOS transcripts; format: cell-based, mouse; conditions: composite Z-score vs DMSO; Conc 20 μM
MEASURED METRIC: nucOX
Respond with the number and no other words.

1. COc1ccc2c(c1OC)C(=O)O[C@@H]2[C@H]1c2cc3c(cc2CCN1C)OCO3 [1s,9r-hydrastine]    −0.041
2. C[C@]12CC[C@H](O)C[C@@H]1CC[C@@H]1[C@@H]2CC[C@]2(C)[C@@H](O)CC[C@@H]12 [5alpha-androstan-3beta,17beta-diol]    0.059
3. O=C(c1ccccc1)c1ccc2n1CCC2C(=O)O (stereo not shown) [ketorolac]    −0.468
4. C[C@@H]1CC[C@@]2(OC1)O[C@H]1C[C@H]3[C@@H]4CC=C5C[C@@H](O)CC[C@]5(C)[C@H]4CC[C@]3(C)[C@H]1[C@@H]2C [diosgenin]    −0.445
5. C[C@@]12C(=O)OC(=O)[C@]1(C)[C@H]1CC[C@@H]2O1 [cantharidin]    0.477
6. COc1ccc(-c2c(O)c3c(OC)c4c(cc3oc2=O)OC(C)(C)CC4)cc1 [dihydrorobustic acid, reference compound]    −0.849
7. COc1ccc(-c2coc3cc(O)ccc3c2=O)c(OC)c1O [koparin 2′-methyl ether]    −1.461
8. O=C(O)c1cccc(O)c1O [pyrocatechuic acid]    −0.324

Incoming: Record request: nucOX value, item COc1cc(C(C)=O)cc(OC)c1O [acetosyringone]
Outgoing: −0.040

Incoming: Record request: nucOX value, item CC(=O)Nc1c(I)cc(I)c(C(=O)O)c1I [acetriazoic acid]
Outgoing: −0.870

Incoming: Record request: nucOX value, item CC(CN(C)C)CN1c2ccccc2Sc2ccccc21 (stereo not shown) [trimeprazine]
Outgoing: −0.130

* * *

tested on: nuOXPHOS transcripts; assay type: cell-based, mouse; conditions: composite Z-score vs mock-treated (DMSO) wells; Conc 20 μM
MEASURED METRIC: nucOX
Respond with the number and no other words.

Incoming: Record request: nucOX value, item CC1(C)C=Cc2cc3ccc(=O)oc3cc2O1
Outgoing: 0.924

* * *

test system: cellular dehydrogenase activity; conditions: normalized composite Z-score vs mock-treated (DMSO) wells; Conc 20 μM
# Lookup of reported MTT keyed by entry
Respond with the number and no other words.

1) COc1cc2c(cc1OC)C1C(=O)c3c(cc4c(c3O)C=CC(C)(C)O4)OC1CO2 (stereo not drawn) [beta-toxicarol, reference compound]    −1.498

Incoming: # query: MTT | item COC(=O)CC[C@@H](C)[C@H]1CC[C@H]2[C@@H]3[C@H](O)C[C@@H]4C[C@H](O)CC[C@]4(C)[C@H]3C[C@H](O)[C@]12C | system: cellular dehydrogenase activity
Outgoing: −1.021

Incoming: # query: MTT | item COc1ccc2c(c1)OCC(Cc1ccc(OC)c(OC)c1)C2O (centres unmarked) [3-deshydroxysappanol trimethyl ether, reference compound] | system: cellular dehydrogenase activity
Outgoing: −0.416

Incoming: # query: MTT | item CC1(C)C2CC(=O)[C@]3(C)C(CC[C@@]4(C)[C@H](c5ccoc5)OC(=O)C5OC543)[C@@]2(C)[C@@H](O)C[C@H]1O (some centres unmarked) | system: cellular dehydrogenase activity
Outgoing: −1.399

Incoming: # query: MTT | item CC(=O)O[C@H]1C[C@@H](O)C(C)(C)[C@@H]2C[C@@H](OC(C)=O)[C@]3(C)[C@H](CC[C@@]4(C)[C@@H](c5ccoc5)OC(=O)[C@H]5O[C@@]534)[C@@]12C | system: cellular dehydrogenase activity
Outgoing: −0.317

Incoming: # query: MTT | item COc1ccc2c(c1)OCC(Cc1ccc(O)c(OC)c1)C2=O (centres unmarked) [deoxysappanone b 7,3′-dimethyl ether, reference compound] | system: cellular dehydrogenase activity
Outgoing: −2.870

Incoming: # query: MTT | item COc1c(CC(=O)c2cc3c(cc2O)OC(C)(C)C(O)C3)ccc2c1C=CC(C)(C)O2 (centres unmarked) [dihydromunduletone] | system: cellular dehydrogenase activity
Outgoing: −0.805

Incoming: # query: MTT | item CC1CC(O)C2OC1CC1C(CC1(C)C)C2C (centres unmarked) | system: cellular dehydrogenase activity
Outgoing: −1.302

Incoming: # query: MTT | item CC1(O)/C=C\C=C(\CO)C2CC(C)(C)C2(O)CC1 (centres unmarked) | system: cellular dehydrogenase activity
Outgoing: −0.596

Incoming: # query: MTT | item CC(C)(O)[C@H]1CC[C@]2(C)[C@H]3CC[C@@H]4[C@@]5(C)CCCC(C)(C)[C@@H]5[C@@H](O)C[C@@]4(C)[C@]3(C)CC[C@@H]12 | system: cellular dehydrogenase activity
Outgoing: −0.387

Incoming: # query: MTT | item C=C/C(C)=C\CC1C(C)(O)CCC2C(C)(C)CCCC21C (centres unmarked) | system: cellular dehydrogenase activity
Outgoing: 0.338

Incoming: # query: MTT | item COc1ccc(-c2cc(=O)c3ccc(OC)cc3o2)cc1 | system: cellular dehydrogenase activity
Outgoing: −0.472

Incoming: # query: MTT | item C=C[C@@](C)(O)CCC1C(=C)CCC2[C@@](C)(CO)CCC[C@]12C (stereo partly drawn) [epi(13)torulosol] | system: cellular dehydrogenase activity
Outgoing: 0.603

Incoming: # query: MTT | item COc1cc(C)c(C(=O)O)c(O)c1 | system: cellular dehydrogenase activity
Outgoing: −1.123
